- experimental.system: MKNK1 (Homo sapiens, UniProt Q9BUB5, T385D)
- Construct: GST (N); purchased Carna Biosciences 02-145; host or cells: insect cells (baculovirus expression system)
- Sequence (Q9BUB5 1-424 isoform Q9BUB5-2 T344D): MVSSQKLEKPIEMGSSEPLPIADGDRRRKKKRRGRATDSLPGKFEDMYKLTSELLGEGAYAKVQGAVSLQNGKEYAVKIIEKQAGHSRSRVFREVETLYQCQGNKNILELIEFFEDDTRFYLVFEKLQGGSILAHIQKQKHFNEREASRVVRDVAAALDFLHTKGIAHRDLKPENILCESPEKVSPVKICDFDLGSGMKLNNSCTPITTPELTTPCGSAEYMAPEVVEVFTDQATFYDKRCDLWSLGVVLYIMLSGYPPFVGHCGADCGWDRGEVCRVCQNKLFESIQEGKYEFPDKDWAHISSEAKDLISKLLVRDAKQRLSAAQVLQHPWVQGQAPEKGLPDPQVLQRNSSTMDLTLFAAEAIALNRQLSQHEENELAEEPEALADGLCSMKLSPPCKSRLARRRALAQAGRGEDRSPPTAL
- measurement.protocol: MKNK1 kinase high ATP assay (TR-FRET-based)
- Assay type: biochemical
- settings: Table 2d; 2 mM ATP, 15 min preincubation
Could you please mark satisfied for values of IC50 below 9 nM and not satisfied for values at or above it?

Some entries whose results are on file:
- compound: "CC(C)Oc1nccc2oc(-c3cnc4ccc(OC[C@H]5CNCC(=O)N5)nn34)cc12"
  experimental.system: "MKNK1 (Homo sapiens, UniProt Q9BUB5, T385D)"
  label.value: "not satisfied"
- compound: "COc1nccc2oc(-c3cnc4ccc(OC[C@H]5CN(C(=O)C6CC6)CCO5)nn34)cc12"
  experimental.system: "MKNK1 (Homo sapiens, UniProt Q9BUB5, T385D)"
  label.value: "not satisfied"
- compound: "COc1nccc2oc(-c3cnc4ccc(OC[C@H]5CN(C(=O)C(F)(F)F)CCO5)nn34)cc12"
  experimental.system: "MKNK1 (Homo sapiens, UniProt Q9BUB5, T385D)"
  label.value: "not satisfied"
- compound: "CC(C)(C)C(=O)N1CCC[C@H]1CCOc1ccc2ncc(-c3cc4cnccc4o3)n2n1"
  experimental.system: "MKNK1 (Homo sapiens, UniProt Q9BUB5, T385D)"
  label.value: "satisfied"
- compound: "CC(C)(C)COc1nccc2oc(-c3cnc4ccc(OC[C@H]5CCC(=O)N5)nn34)cc12"
  experimental.system: "MKNK1 (Homo sapiens, UniProt Q9BUB5, T385D)"
  label.value: "satisfied"
- compound: "O=C1CC[C@H](COc2ccc3ncc(-c4cc5c(OCC6CC6)nccc5o4)n3n2)N1"
  experimental.system: "MKNK1 (Homo sapiens, UniProt Q9BUB5, T385D)"
  label.value: "satisfied"

Here's an entry: COc1nccc2oc(-c3cnc4ccc(OC[C@H]5CN(C(=O)C(C)(C)C)CCO5)nn34)cc12 . Is its IC50 below 9 nM?
not satisfied

###

- experimental.system: MKNK1 (Homo sapiens, UniProt Q9BUB5, T385D)
- Construct: GST (N); purchased Carna Biosciences 02-145; host or cells: insect cells (baculovirus expression system)
- measurement.protocol: MKNK1 kinase assay (MKNK1 TR-FRET assay)
- Assay type: biochemical
- settings: Table 1c; 10 μM ATP, 15 min preincubation
measurement.kind: pIC50
Remember the convention: pIC50 equals -log10 of concentration in molar.

- smiles.data: "C[C@H](N)COc1ccc2ncc(-c3cc4c(N5CCN(c6ccccc6)CC5)nccc4o3)n2n1"
  pIC50: 7.78

Hello, I am looking for reported pIC50 with MKNK1 (Homo sapiens, UniProt Q9BUB5, T385D) for CN(CCCO)c1nccc2oc(-c3cnc4ccc(O[C@H]5C[C@H](N)C5)nn34)cc12 . Could you help?
8.68

Lab note: need pIC50 for CCN(CCOC(C)(C)C)c1nccc2oc(-c3cnc4ccc(O[C@H]5C[C@H](N)C5)nn34)cc12 on MKNK1 (Homo sapiens, UniProt Q9BUB5, T385D), anyone have it?
8.72

###

- experimental.system: MKNK1 (Homo sapiens, UniProt Q9BUB5, T385D)
- Construct: GST (N); purchased Carna Biosciences 02-145; host or cells: insect cells (baculovirus expression system)
- measurement.protocol: MKNK1 kinase high ATP assay (TR-FRET-based)
- Type: biochemical
- settings: Table 2b; 2 mM ATP, 15 min preincubation
measurement.kind: IC50 (nM)
Hi! Could you send only the number? It should be in nM, unit omitted.

Answered examples (5):
- smiles.data: "O=C1CC[C@H](COc2ccc3ncc(-c4cc5c(N6CCOCC6)cccc5o4)n3n2)N1"
  numeric.readout: 27
- smiles.data: "FC(F)(F)COc1ccc2ncc(-c3cc4c(N5CCNCC5)cccc4o3)n2n1"
  numeric.readout: 3.1
- smiles.data: "CC1(C)CN(c2cccc3oc(-c4cnc5ccc(OCC(F)(F)F)nn45)cc23)CCN1"
  numeric.readout: 2.4
- smiles.data: "C[C@@H](N)COc1ccc2ncc(-c3cc4c(N5CCOC(C)(C)C5)cccc4o3)n2n1"
  numeric.readout: 49.6
- smiles.data: "C[C@H]1COCCN1c1cccc2oc(-c3cnc4ccc(OC[C@H]5CCC(=O)N5)nn34)cc12"
  numeric.readout: 8.1

Find IC50 (MKNK1 (Homo sapiens, UniProt Q9BUB5, T385D)) for the entry COc1ccc2ncc(-c3cc4c(N5CCNC[C@@H]5C)cccc4o3)n2n1
0.7

###

- experimental.system: MKNK1 (Homo sapiens, UniProt Q9BUB5, T385D)
- Construct: GST (N); purchased Carna Biosciences 02-145; host or cells: insect cells (baculovirus expression system)
- measurement.protocol: MKNK1 kinase high ATP assay (TR-FRET-based)
- Format: biochemical
- settings: Table 2a; 2 mM ATP, 15 min preincubation
measurement.kind: IC50 (µM)
State just the number; it will be interpreted in µM.

Example compounds with recorded IC50:
- compound: "O=C(c1ccno1)N1CCC[C@H]1CCOc1ccc2ncc(-c3cc4ccccc4o3)n2n1"
  IC50 / µM: 0.0022
- compound: "CC(Oc1ccc2ncc(-c3cc4ccccc4o3)n2n1)C(N)=O (centres unmarked)"
  IC50 / µM: 0.0208
- compound: "CC(C)(C)CC(=O)N1CCOC(COc2ccc3ncc(-c4cc5ccccc5o4)n3n2)C1 (centres unmarked)"
  IC50 / µM: 0.0109

Consider the compound O=C(C1CCCO1)N1CCC[C@H]1CCOc1ccc2ncc(-c3cc4ccccc4o3)n2n1 (some centres unmarked) and give its measured IC50.
0.0035

I'd like to know its IC50. The compound in question is O=C(CO)NCCOc1ccc2ncc(-c3cc4ccccc4o3)n2n1
0.0203

What does the data say about its IC50? Entry: O=C1CC[C@@H](COc2ccc3ncc(-c4cc5ccccc5o4)n3n2)N1
0.0092

What does the record list as IC50 for COCC(=O)NC[C@H](Oc1ccc2ncc(-c3cc4ccccc4o3)n2n1)c1cccnc1 ?
0.0348

Reported IC50 for O=C(NCCOc1ccc2ncc(-c3cc4ccccc4o3)n2n1)c1ccccc1Cl : what is it?
0.0118

Param item = CC(=O)N[C@H]1C[C@H](Oc2ccc3ncc(-c4cc5ccccc5o4)n3n2)C1 ; retrieve measured IC50.
0.01

Return reported IC50; argument: O=C(c1cnoc1)N1CCC[C@H]1CCOc1ccc2ncc(-c3cc4ccccc4o3)n2n1
0.0018

Item COc1ccc2oc(-c3cnc4ccc(OC[C@@H]5CCC(=O)N5)nn34)cc2c1 has what recorded IC50?
0.0107

For the compound NC(=O)C(Oc1ccc2ncc(-c3cc4ccccc4o3)n2n1)c1cccnc1 (centres unmarked) , what IC50 is on record?
0.0777

Quick one: IC50 for O=C1CCCC(COc2ccc3ncc(-c4cc5ccccc5o4)n3n2)N1 (centres unmarked) ?
0.0093

Please give the measured IC50 for this compound: CCC(C)C(=O)NCCOc1ccc2ncc(-c3cc4ccccc4o3)n2n1 (centres unmarked)
0.0165

Recorded IC50 for COc1cccc2oc(-c3cnc4ccc(OC[C@H]5CN(C(=O)C(F)(F)F)CCO5)nn34)cc12 , please?
0.0155

Endpoint output: IC50 of O=C(CO)N1CCC[C@H]1CCOc1ccc2ncc(-c3cc4ccccc4o3)n2n1 . Value?
0.0053

Look at this compound and give its reported IC50. CC(C)(C)C(=O)N1CCC[C@H]1CCOc1ccc2ncc(-c3cc4ccccc4o3)n2n1 [Example I-46]
0.0019

###

- experimental.system: MKNK1 (Homo sapiens, UniProt Q9BUB5, T385D)
- Construct: GST (N); purchased Carna Biosciences 02-145; host or cells: insect cells (baculovirus expression system)
- measurement.protocol: MKNK1 kinase assay (MKNK1 TR-FRET assay)
- Assay type: biochemical
- settings: Table 1d; 10 μM ATP, 15 min preincubation
measurement.kind: IC50 (nM)
Express it in nM; write the number only.

Field: example entries. Status: answers known.
- compound: "COc1nccc2oc(-c3cnc4ccc(OCCC5CCC(=O)N5)nn34)cc12 (centres unmarked)"
  IC50, nM: 11
- compound: "COc1nccc2oc(-c3cnc4ccc(OC[C@H]5CN(C(=O)C(C)(C)C)CCO5)nn34)cc12"
  IC50, nM: 6

// query IC50 value for entry COc1nccc2oc(-c3cnc4ccc(OC[C@H]5CN(C(=O)C6CC6)CCO5)nn34)cc12
4

Consider the compound shown here: COc1nccc2oc(-c3cnc4ccc(OC[C@@H]5CCC(=O)N5)nn34)cc12 What is its recorded IC50?
10

Fill blank: measured IC50 of the compound CCNc1nccc2oc(-c3cnc4ccc(OC[C@H]5CCC(=O)N5)nn34)cc12 is ____.
1

###

- experimental.system: MKNK1 (Homo sapiens, UniProt Q9BUB5, T385D)
- Construct: GST (N); purchased Carna Biosciences 02-145; host or cells: insect cells (baculovirus expression system)
- measurement.protocol: MKNK1 kinase high ATP assay (TR-FRET-based)
- Format: biochemical
- settings: Table 2a; 2 mM ATP, 15 min preincubation
Listed below: log10(IC50) values for each entry.
Each number you see is log10 of IC50, and the unit inside the log is nM.

Answered cases to consult:
- molecule: "O=C1NCCC1Oc1ccc2ncc(-c3cc4ccccc4o3)n2n1 (stereo not drawn)"
  experimental.system: "MKNK1 (Homo sapiens, UniProt Q9BUB5, T385D)"
  numeric.readout: 1.86
- molecule: "O=C1NCCN1CCOc1ccc2ncc(-c3cc4ccccc4o3)n2n1"
  experimental.system: "MKNK1 (Homo sapiens, UniProt Q9BUB5, T385D)"
  numeric.readout: 1.14
- molecule: "O=C(CC1CC1)NCCOc1ccc2ncc(-c3cc4ccccc4o3)n2n1"
  experimental.system: "MKNK1 (Homo sapiens, UniProt Q9BUB5, T385D)"
  numeric.readout: 1.32
- molecule: "COC(=O)N1CCC[C@H]1CCOc1ccc2ncc(-c3cc4ccccc4o3)n2n1"
  experimental.system: "MKNK1 (Homo sapiens, UniProt Q9BUB5, T385D)"
  numeric.readout: 1.00
- molecule: "COc1cccc2oc(-c3cnc4ccc(OCCN5CCNC5=O)nn34)cc12"
  experimental.system: "MKNK1 (Homo sapiens, UniProt Q9BUB5, T385D)"
  numeric.readout: 1.01
- molecule: "O=C(c1ccco1)N1CCC[C@H]1CCOc1ccc2ncc(-c3cc4ccccc4o3)n2n1"
  experimental.system: "MKNK1 (Homo sapiens, UniProt Q9BUB5, T385D)"
  numeric.readout: 0.38
- molecule: "Cc1cccc(C(=O)NCCOc2ccc3ncc(-c4cc5ccccc5o4)n3n2)c1"
  experimental.system: "MKNK1 (Homo sapiens, UniProt Q9BUB5, T385D)"
  numeric.readout: 1.57
- molecule: "O=C1CCC(CCOc2ccc3ncc(-c4cc5ccccc5o4)n3n2)N1 (stereo not drawn)"
  experimental.system: "MKNK1 (Homo sapiens, UniProt Q9BUB5, T385D)"
  numeric.readout: 1.36

Quick one: log10(IC50) of O=C(c1ccsc1)N1CCC[C@H]1CCOc1ccc2ncc(-c3cc4ccccc4o3)n2n1 ?
0.59

log10(IC50) for O=C1CNC[C@H](COc2ccc3ncc(-c4cc5ccccc5o4)n3n2)N1 ?
1.43

// returns reported log10(IC50) for input NC(=O)COc1ccc2ncc(-c3cc4ccccc4o3)n2n1
1.32

So what's the measured log10(IC50) for this one? CC(C)(C)CC(=O)NCCOc1ccc2ncc(-c3cc4ccccc4o3)n2n1
1.14
